experimental_target: Ubiquitin carboxyl-terminal hydrolase isozyme L1 (Mus musculus)
Sequence (Q9R0P9 whole entry): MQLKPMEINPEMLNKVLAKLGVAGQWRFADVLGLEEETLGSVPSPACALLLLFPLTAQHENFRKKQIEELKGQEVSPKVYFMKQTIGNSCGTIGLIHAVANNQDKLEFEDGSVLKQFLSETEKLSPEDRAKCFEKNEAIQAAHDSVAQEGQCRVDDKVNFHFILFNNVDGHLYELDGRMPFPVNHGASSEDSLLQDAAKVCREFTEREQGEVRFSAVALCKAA
pIC50: −log10 of the molar value.
# if value of pIC50 reaches 5, tag yes; if it stays below, tag no

Please tell me: is the molecule `Cc1ccc(C(=O)NC(=S)NNC(=O)c2cccc([N+](=O)[O-])c2)cc1` at or over 5 in terms of pIC50?
no

Please tell me: is the molecule `COc1ccc2nc(C3CCCCC3)nc(C3CCCCC3)c2c1` at or over 5 in terms of pIC50?
no

Please tell me: is the molecule `O[C@@H]1CCCN2CCc3c([nH]c4ccccc34)[C@H]12` at or over 5 in terms of pIC50?
yes

Please tell me: is the molecule `CC(C)(C)OC(=O)[C@H](Cc1ccccc1)NC(=O)c1[nH]cnc1C(=O)Nc1ccc(Cl)cc1` at or over 5 in terms of pIC50?
no

Please tell me: is the molecule CC1Oc2cc3oc4c(O)c5c(cc4c(=O)c3c(O)c2C1(C)C)C=CC(C)(C)O5 (stereo not drawn) at or over 5 in terms of pIC50?
yes

###

Target chain: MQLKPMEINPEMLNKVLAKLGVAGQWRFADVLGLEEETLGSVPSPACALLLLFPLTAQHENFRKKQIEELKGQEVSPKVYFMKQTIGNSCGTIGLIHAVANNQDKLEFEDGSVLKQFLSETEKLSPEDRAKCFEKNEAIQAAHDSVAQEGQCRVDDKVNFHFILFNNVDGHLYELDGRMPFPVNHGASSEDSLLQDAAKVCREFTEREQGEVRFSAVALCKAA
observation_type: log10 of IC50 (log10 of the value in µM)
Could you please treat all values as log10 of IC50 in µM?

Look up and state reported log10 of IC50 for `COC(=O)[C@H]1[C@H](CCc2ccccc2)NC(=O)N(Cc2ccccc2)[C@@H]1C`
1.71

Look up and state reported log10 of IC50 for C=CC(C)(C)c1c(O)c(CC=C(C)C)c(O)c2c(=O)c3ccc(O)c(O)c3oc12 [SMR000470960]
0.26

Look up and state reported log10 of IC50 for CN1CCN(C2Cc3ccc(Cl)cc3Sc3ccc(F)cc32)CC1 (centres undefined)
2.51

Look up and state reported log10 of IC50 for `CC(C)(C)OC(=O)NCCCC[C@H](NC(=O)c1[nH]cnc1C(=O)Nc1ccc(Cl)cc1)C(=O)OC(C)(C)C`
1.28

Look up and state reported log10 of IC50 for CC1(C)CC(=O)C(C2C3=C(CC(C)(C)CC3=O)Oc3c(Br)cc(Br)cc32)C(=O)C1 (centres undefined)
1.08

Look up and state reported log10 of IC50 for c1ccc(-c2nc(C3CCCCC3)c3ccccc3n2)cc1 [4-Cyclohexyl-2-phenyl-quinazoline]
1.88

Look up and state reported log10 of IC50 for Clc1cccc(Cl)c1C1Nc2cccc3cccc(c23)N1 [SMR000515760]
0.61

Look up and state reported log10 of IC50 for `COc1ccc(N=Nc2cc(-c3ccccc3)ccc2O)cc1`
1.08

Look up and state reported log10 of IC50 for COc1cc(/C=C2/SC(=S)N(Cc3ccccc3)C2=O)ccc1O [MLS001211321]
1.26
